Data origin: the RNAGym collection of RNA variant scans (doi:10.1073/pnas.2313332121)

B1: TPR t1 (parent)
chain: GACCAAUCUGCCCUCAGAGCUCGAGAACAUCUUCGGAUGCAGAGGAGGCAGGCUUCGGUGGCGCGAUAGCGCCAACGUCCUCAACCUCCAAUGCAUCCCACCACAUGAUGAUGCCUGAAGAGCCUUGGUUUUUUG

variants of: B1; experiment: polymerase ribozyme fitness, log enrichment relative to wild type (log ratio); higher = more active; in vitro selection for triplet polymerase activity
Categories are assigned from the measured polymerase ribozyme fitness (log ratio) using these intervals: L (below -4), M (-4 to below -2), H (-2 or more)

In [3]: df
Out[3]:
                   var  answer_label
0  C4G A43U A46G G113A             M

Where would U9C C12U C22G G45C C72G A100U land among the classes by reported polymerase ribozyme fitness (log ratio)?
L

Please give the result for C12U G45A too.
H

Please give the result for U14A G52A too.
M

Please give the result for U38A U133A too.
H

Please give the result for G10A U133G too.
H

Please give the result for C13G G47A U54C too.
M

Please give the result for U59C G127U too.
H

Please give the result for C73U A84U G110U too.
H

Please give the result for C11U C22G C40U G69A too.
L

Please give the result for U9G C53A A95C U112G too.
H

Please give the result for C12A C40U C56A U96A G117A too.
L
